Dear all, this message contains IC50 results, target or system Poly [ADP-ribose] polymerase 1 (Homo sapiens).
measurement-label: IC50

INSERT INTO results (smiles_notation, obs_value) VALUES
  ('O=c1[nH]c(CCCN2CCN(c3cccc(Cl)c3)CC2)nc2ccccc12', '1010 nM'),
  ('O=c1[nH]c(CCCN2CCN(c3ccc(F)cc3)CC2)nc2ccccc12', '77 nM'),
  ('O=c1[nH]c(CCCN2CC=C(c3ccc(F)cc3)CC2)nc2ccccc12', '304 nM');

###

# run-description: Cytotoxicity against human YCC-3 cells after 36 hrs by MTS assay
# Format: cell-based
# measurement-parameters: YCC-3, 36 h
pIC50: −log10 of the molar value.
measurement-label: pIC50

INSERT INTO measurements (smiles_notation, operator_symbol, obs_value) VALUES
  ('O=c1[nH]c(CCCN2CCC(c3ccccc3)CC2)nc2ccccc12', '=', 3.90),
  ('O=c1[nH]c(CCCN2CCN(c3ccc(F)cc3)CC2)nc2ccccc12', '<', 3.70);

Where these numbers come from: ChEMBL document CHEMBL2375246
